- procedure details: Pharmacokinetic study in plasma and brain
- Type: in vivo, male C57BL/6 mice
- measurement context: male, C57BL/6, mouse, plasma, po, 1 mg/kg; read-out: Plasma t1/2 el
observation type: half-life (min)
Note: unit min is implicit; provide only the numeric part.

Input line: Requested read-out: half-life. Entry: `CN(CCCNC(=O)c1ccc(Cl)cc1)Cc1ccccc1`
Output line: 25.5

====

- procedure details: Microsomal stability in mouse liver microsomes
- Assay type: in vitro ADME
- measurement context: mouse, liver microsomes, mLM
- Procedure: Metabolic stability analysis (mouse and human liver microsomes) was performed by Eurofins Cerep (Poitiers, France) at 10 µM as described in [55]. Results were obtained at 15, 30, 45 and 60 min. Results were expressed as percent of the parent compound remaining, and calculated by comparing the peak area of the compound at the time point relative to that at time 0. The half-life (t1/2) and the apparent intrinsic clearance (CLint) were evaluated.
observation type: half-life at 10 µM

compound	half-life at 10 µM
O=C(NCCCNCc1ccccc1)c1ccc(Cl)cc1 [compound 7i-deMe]	> 3 h

Now consider the entry below.
Input line: Query (compound): CN(CCCNC(=O)c1ccc(Cl)cc1)Cc1ccccc1 [compound 7i] ; field requested: half-life at 10 µM
Output line: > 1 h

====

- procedure details: Bidirectional permeability in Caco-2 (pH 6.5/7.4)
- Format: in vitro ADME, human
- measurement context: human, pH 6.5; Caco-2, 10 µM; read-out: Permeability B/A pH6.5/7.4
- Method: The compound was classically evaluated at 10 µM for all the ADME analyses. Bidirectional permeability (apical A to basolateral B pH 6.5/7.4 and basolateral B to apical A pH 7.4/6.5) was assessed in the epithelial colorectal adenocarcinoma cell line (Caco-2 cell line). Results were expressed as × 10^−6cm/s (Papp) and as % recovery. Efflux ratio, i.e., Papp(B-A)/Papp(A-B), was calculated. Plasma protein binding was analyzed by HPLC-MS/MS after 4-h incubation at 37 °C, as described by Banker et al.. […]
observation type: Papp B→A at 10 µM (×10⁻⁶ cm/s)
Express the result in ×10⁻⁶ cm/s but write the number alone.

Input line: Sample CN(CCCNC(=O)c1ccc(Cl)cc1)Cc1ccccc1 [compound 7i] — what was its Papp B→A at 10 µM?
Output line: 66.1

Input line: Check O=C(NCCCNCc1ccccc1)c1ccc(Cl)cc1 [compound 7i-deMe] too.
Output line: 51.5

====

- tested on: P-gp (Homo sapiens, UniProt P08183)
- Construct: in the Caco-2 cell line with and without verapamil; host or cells: Caco-2
- Sequence (P08183 whole entry): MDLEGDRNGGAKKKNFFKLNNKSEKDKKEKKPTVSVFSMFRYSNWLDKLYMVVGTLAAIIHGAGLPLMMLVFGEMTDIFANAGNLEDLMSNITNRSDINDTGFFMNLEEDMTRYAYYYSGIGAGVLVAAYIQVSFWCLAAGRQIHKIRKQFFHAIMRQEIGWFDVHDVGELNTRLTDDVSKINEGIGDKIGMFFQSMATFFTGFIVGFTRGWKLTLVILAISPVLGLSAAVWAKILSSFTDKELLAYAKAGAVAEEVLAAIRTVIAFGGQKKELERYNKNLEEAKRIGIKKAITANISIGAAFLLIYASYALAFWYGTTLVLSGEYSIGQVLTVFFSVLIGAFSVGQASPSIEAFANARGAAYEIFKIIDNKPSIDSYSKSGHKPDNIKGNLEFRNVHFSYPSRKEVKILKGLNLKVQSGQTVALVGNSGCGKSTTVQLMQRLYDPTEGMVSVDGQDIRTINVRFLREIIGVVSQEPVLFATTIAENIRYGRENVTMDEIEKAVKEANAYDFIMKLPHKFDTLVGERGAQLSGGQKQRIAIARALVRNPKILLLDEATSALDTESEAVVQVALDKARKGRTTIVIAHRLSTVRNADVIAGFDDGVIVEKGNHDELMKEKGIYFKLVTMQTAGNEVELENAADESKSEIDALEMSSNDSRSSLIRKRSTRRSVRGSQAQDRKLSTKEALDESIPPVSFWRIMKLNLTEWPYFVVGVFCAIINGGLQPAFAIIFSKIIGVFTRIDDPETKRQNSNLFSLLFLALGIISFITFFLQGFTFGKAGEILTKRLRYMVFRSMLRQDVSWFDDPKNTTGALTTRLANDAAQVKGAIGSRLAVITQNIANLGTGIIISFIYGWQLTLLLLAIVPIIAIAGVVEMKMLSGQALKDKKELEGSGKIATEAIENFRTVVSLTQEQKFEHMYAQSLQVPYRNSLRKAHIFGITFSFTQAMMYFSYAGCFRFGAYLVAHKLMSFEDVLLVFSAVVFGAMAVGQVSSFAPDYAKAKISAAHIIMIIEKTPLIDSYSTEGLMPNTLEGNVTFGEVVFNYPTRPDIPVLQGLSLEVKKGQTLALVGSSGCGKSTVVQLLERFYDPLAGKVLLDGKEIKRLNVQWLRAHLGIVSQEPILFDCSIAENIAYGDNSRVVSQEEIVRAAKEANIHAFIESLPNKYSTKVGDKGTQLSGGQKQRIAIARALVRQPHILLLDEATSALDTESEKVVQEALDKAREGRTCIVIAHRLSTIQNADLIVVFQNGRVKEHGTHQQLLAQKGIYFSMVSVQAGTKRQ
- procedure details: P-gp substrate assessment, Caco-2 with and without verapamil
- Assay type: in vitro ADME
- measurement context: human, pH 7.4; Caco-2, 10 µM, PBS (no verapamil); read-out: P-gp substrate, PBS, A/B pH7.4/7.4
observation type: Papp A→B at 10 µM (×10⁻⁶ cm/s)
Supply the numeric figure in ×10⁻⁶ cm/s, leaving out any unit text.

Input line: Query the reported Papp A→B at 10 µM for P-gp (Homo sapiens, UniProt P08183); item: `CN(CCCNC(=O)c1ccc(Cl)cc1)Cc1ccccc1`
Output line: 45.8

====

- procedure details: Pharmacokinetic study in plasma and brain
- Assay type: in vivo, male C57BL/6 mice
- measurement context: male, C57BL/6, mouse, brain, iv, 1 mg/kg; read-out: Brain t1/2 el
observation type: half-life (h)
Give your result in h as a bare value.

Input line: Entry under review: CN(CCCNC(=O)c1ccc(Cl)cc1)Cc1ccccc1 [compound 7i] . Reported half-life?
Output line: 1.61

====

- procedure details: Pharmacokinetic study in plasma and brain
- Format: in vivo, male C57BL/6 mice
- measurement context: male, C57BL/6, mouse, plasma, po, 1 mg/kg, p.o., mouse plasma, read-out: Plasma tmax
observation type: Tmax

Input line: So what's the measured Tmax for this one? CN(CCCNC(=O)c1ccc(Cl)cc1)Cc1ccccc1 [compound 7i]
Output line: < 30 min

====

Quick reference for inhibition at 10 µM among some compounds
- Test system: CYP3A
- procedure details: CYP inhibition in human liver microsomes
- Format: in vitro ADME
- measurement context: read-out: CYPs inhibition CYP3A
Enter your answer as a number in %; do not include the unit.

compound	tested on	quantity unit	inhibition at 10 µM
O=C(NCCCNCc1ccccc1)c1ccc(Cl)cc1 [compound 7i-deMe]	CYP3A	%	3.2

// next entry
Input line: Fill blank: measured inhibition at 10 µM of the compound CN(CCCNC(=O)c1ccc(Cl)cc1)Cc1ccccc1 [compound 7i] is ____.
Output line: 36.9

====

- tested on: hERG (Homo sapiens, UniProt Q12809)
- Construct: host or cells: CHO (hERG-CHO overexpressing cells)
- Sequence (Q12809 whole entry): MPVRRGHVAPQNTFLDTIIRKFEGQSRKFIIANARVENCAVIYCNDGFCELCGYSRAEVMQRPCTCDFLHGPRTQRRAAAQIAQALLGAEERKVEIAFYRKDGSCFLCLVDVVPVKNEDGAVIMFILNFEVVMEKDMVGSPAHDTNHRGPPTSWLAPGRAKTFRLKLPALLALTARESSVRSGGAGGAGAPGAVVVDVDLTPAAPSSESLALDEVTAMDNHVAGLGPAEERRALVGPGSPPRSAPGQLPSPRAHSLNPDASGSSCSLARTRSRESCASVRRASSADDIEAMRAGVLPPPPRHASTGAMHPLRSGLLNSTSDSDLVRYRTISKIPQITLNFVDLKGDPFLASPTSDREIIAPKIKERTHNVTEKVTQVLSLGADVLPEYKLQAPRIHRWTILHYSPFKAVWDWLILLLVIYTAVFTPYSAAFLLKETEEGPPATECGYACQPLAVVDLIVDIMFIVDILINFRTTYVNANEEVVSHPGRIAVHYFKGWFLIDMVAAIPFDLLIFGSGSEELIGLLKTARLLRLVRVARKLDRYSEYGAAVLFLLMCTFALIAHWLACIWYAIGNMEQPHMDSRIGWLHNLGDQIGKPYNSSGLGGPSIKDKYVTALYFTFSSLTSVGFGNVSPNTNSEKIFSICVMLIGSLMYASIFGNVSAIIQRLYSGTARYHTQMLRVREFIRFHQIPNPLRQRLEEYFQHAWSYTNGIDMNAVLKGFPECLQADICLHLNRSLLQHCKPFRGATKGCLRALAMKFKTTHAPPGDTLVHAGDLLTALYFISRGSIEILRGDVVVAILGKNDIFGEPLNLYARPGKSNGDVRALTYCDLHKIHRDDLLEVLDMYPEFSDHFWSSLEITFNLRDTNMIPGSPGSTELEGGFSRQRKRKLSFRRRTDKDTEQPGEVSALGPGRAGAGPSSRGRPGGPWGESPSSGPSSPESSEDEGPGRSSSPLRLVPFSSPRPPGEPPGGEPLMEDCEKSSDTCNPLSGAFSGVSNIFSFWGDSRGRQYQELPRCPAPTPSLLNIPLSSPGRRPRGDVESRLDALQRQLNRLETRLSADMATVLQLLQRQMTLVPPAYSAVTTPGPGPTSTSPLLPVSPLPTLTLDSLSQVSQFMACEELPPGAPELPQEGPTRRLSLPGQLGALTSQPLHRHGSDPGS
- procedure details: hERG automated patch-clamp in hERG-CHO cells
- Format: cell-based
- measurement context: Table 4; read-out: hERG inhibition IC50
observation type: IC50 (µM)
Expressed in µM, but write only the number.

Input line: Please look up its IC50: `CN(CCCNC(=O)c1ccc(Cl)cc1)Cc1ccccc1`
Output line: 1

====

- tested on: OCT1 (Homo sapiens)
- Sequence (O15245 whole entry): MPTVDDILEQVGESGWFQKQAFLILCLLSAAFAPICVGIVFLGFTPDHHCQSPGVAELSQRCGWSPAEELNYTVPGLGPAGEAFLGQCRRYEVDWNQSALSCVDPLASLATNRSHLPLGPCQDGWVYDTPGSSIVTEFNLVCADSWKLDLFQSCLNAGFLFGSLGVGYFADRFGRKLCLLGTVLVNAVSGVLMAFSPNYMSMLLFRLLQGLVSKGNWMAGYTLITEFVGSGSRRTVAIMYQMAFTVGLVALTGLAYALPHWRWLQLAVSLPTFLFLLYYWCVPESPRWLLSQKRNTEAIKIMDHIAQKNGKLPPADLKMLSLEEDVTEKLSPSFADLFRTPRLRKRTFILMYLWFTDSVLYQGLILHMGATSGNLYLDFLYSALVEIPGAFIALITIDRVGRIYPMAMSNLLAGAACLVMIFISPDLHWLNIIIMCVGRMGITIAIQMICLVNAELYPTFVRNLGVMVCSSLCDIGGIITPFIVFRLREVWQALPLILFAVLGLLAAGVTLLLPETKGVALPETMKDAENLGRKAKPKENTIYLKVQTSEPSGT
- procedure details: Drug transporter inhibition (SLC family)
- Assay type: in vitro ADME
- measurement context: transporter-overexpressing cell lines, read-out: Drug transporters inhibition OCT1
observation type: inhibition at 10 µM (%)
The reply should be a number in %, with the unit left off.

CN(CCCNC(=O)c1ccc(Cl)cc1)Cc1ccccc1 41.2

Input line: Give the reported inhibition at 10 µM for `O=C(NCCCNCc1ccccc1)c1ccc(Cl)cc1` (system: OCT1 (Homo sapiens)).
Output line: 64.6

====

- Tested on: P-gp
- Construct: in the Caco-2 cell line with and without verapamil; host or cells: Caco-2
- procedure details: P-gp substrate assessment, Caco-2 with and without verapamil
- Type: in vitro ADME
- measurement context: human, pH 7.4; Caco-2, 10 µM, with verapamil; read-out: P-gp substrate, Verapamil, B/A pH7.4/7.4
observation type: Papp B→A at 10 µM
Just the number plus its unit, please.

Input line: Could you share which Papp B→A at 10 µM value was measured for `CN(CCCNC(=O)c1ccc(Cl)cc1)Cc1ccccc1` ?
Output line: 16.9 ×10⁻⁶ cm/s

Cited source: paper PMC9569529
